Biological target: p110α/p85α (Homo sapiens (Human), UniProt P42336)
Sequence (P42336 whole entry): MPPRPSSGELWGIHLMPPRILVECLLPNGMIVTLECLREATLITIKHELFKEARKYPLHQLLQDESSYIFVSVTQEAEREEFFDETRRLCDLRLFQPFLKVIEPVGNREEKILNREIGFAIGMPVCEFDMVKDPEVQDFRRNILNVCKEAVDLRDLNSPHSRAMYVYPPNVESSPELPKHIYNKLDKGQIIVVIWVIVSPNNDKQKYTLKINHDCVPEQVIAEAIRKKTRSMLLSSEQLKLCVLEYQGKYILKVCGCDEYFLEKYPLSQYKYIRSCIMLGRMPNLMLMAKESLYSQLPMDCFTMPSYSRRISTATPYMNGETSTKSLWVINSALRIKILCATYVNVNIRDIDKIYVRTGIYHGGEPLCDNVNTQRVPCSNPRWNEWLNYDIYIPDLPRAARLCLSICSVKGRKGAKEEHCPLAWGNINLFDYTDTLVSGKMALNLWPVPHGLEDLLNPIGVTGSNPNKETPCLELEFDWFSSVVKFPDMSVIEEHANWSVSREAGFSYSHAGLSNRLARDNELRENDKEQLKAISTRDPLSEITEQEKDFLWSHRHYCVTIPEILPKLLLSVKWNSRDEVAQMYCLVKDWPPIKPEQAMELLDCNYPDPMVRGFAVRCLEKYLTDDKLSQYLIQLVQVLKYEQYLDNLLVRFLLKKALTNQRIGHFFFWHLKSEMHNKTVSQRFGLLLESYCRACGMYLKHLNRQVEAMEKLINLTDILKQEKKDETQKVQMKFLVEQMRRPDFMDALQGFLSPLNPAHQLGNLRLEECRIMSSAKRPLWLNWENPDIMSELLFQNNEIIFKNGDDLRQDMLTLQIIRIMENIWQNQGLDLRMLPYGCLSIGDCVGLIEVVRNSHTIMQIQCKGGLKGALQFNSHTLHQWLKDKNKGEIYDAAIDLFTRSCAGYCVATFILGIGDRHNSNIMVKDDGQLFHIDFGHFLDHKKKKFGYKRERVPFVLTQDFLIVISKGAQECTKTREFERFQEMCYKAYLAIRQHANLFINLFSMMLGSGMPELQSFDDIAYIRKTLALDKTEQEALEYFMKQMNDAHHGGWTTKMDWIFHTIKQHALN
Sequence (P27986 whole entry partner): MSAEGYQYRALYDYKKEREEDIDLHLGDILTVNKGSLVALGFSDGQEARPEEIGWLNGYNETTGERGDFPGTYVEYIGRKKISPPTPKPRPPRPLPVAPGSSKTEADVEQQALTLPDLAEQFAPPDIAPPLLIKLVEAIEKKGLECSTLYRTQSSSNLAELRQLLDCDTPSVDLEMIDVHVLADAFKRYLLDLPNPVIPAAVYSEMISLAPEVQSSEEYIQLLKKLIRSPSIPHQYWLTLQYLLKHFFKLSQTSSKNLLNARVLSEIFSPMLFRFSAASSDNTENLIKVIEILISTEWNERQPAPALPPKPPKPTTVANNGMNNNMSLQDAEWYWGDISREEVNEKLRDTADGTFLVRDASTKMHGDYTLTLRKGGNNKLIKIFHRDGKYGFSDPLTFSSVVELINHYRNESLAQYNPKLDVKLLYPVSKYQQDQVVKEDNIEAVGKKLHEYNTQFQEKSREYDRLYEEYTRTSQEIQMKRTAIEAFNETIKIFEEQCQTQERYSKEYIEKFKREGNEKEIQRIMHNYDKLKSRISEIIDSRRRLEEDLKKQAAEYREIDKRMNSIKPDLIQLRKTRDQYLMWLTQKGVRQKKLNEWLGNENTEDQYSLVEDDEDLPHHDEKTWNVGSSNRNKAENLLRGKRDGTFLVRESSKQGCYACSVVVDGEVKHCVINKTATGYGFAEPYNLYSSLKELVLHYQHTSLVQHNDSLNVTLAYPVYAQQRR
Assay: PI 3-Kinase (human) HTRF assay, p110α/p85α
Type: biochemical
Conditions: read-out: PI3K α IC50
ENDPOINT: IC50

Check out these entries, answers already filled in.
COMPOUND	IC50
CN(C)C1CCN(c2cnc3ccc(-c4ccc5oc(N)nc5c4)cc3n2)CC1 [compound 172]	< 100 nM
Cc1ccc(-c2cnc3ccc(-c4ccc5oc(N)nc5c4)cc3n2)cn1 [compound 194]	< 100 nM
CN1CCN(C(=O)c2cnc3ccc(-c4ccc5oc(N)nc5c4)cc3n2)CC1 [compound 157]	< 10000 nM
CN(C)CC(=O)N1CCC(Nc2ncnc3ccc(-c4ccc5oc(N)nc5c4)cc23)CC1 [compound 103]	< 100 nM
CN1CCC(NC(=O)c2cnc3ccc(-c4ccc5oc(N)nc5c4)cn23)CC1 [compound 159]	< 100 nM
CN1CCN(C(=O)c2cnc3ccc(-c4ccc5oc(N)nc5c4)nn23)CC1 [compound 104]	< 10000 nM
Nc1nc2cc(-c3ccc4ncc(C(=O)N5CCN(CCO)CC5)n4c3)ccc2o1 [compound 148]	< 100 nM
Cn1cc(-c2cnc3ccc(-c4ccc5oc(N)nc5c4)cc3n2)cn1 [compound 94]	< 100 nM

INPUT: Dear colleague, please send me the reported IC50 for C[C@@H]1CN(c2cnc3ccc(-c4ccc5oc(N)nc5c4)cc3n2)CCN1 [compound 179] when you can.
OUTPUT: < 100 nM

INPUT: Give reported IC50 value for CC(=O)N1CCC(Nc2ncnc3ccc(-c4ccc5oc(N)nc5c4)cc23)CC1 [compound 60]
OUTPUT: < 100 nM

INPUT: Determine its reported IC50: CNC(=O)N1CCN(c2cnc3ccc(-c4ccc5oc(N)nc5c4)cc3n2)CC1 [compound 154]
OUTPUT: < 100 nM

INPUT: Retrieve IC50 measured for Nc1nc2cc(-c3ccc4ncc(C(=O)N5CCC(N6CCOCC6)CC5)n4c3)ccc2o1 [compound 163] and print it.
OUTPUT: < 1000 nM

INPUT: For the compound CS(=O)(=O)N1CCC(Nc2cnc3ccc(-c4ccc5oc(N)nc5c4)cc3n2)CC1 [compound 95] , give its reported IC50.
OUTPUT: < 100 nM

INPUT: Give recorded IC50. Nc1nc2ccc(-c3ccc4ncc(N5CCOCC5)nc4c3)cc2o1 [compound 117]
OUTPUT: < 100 nM

INPUT: Look up and report measured IC50 for this entry: CN1CCN(C(=O)C2CN(c3cnc4ccc(-c5ccc6oc(N)nc6c5)cc4n3)C2)CC1 [compound 170]
OUTPUT: < 100 nM

INPUT: # return recorded IC50 for input CC(C)N1CCN(C(=O)c2cnc3ccc(-c4ccc5oc(N)nc5c4)cn23)CC1 [compound 160]
OUTPUT: < 100 nM

INPUT: Look up and state reported IC50 for CC1CN(c2cnc3ccc(-c4ccc5oc(N)nc5c4)cc3n2)CCN1 (centres unmarked) [compound 149]
OUTPUT: < 100 nM

* * *

Biological target: p110γ (Homo sapiens (Human), UniProt P48736)
Sequence (P48736 whole entry): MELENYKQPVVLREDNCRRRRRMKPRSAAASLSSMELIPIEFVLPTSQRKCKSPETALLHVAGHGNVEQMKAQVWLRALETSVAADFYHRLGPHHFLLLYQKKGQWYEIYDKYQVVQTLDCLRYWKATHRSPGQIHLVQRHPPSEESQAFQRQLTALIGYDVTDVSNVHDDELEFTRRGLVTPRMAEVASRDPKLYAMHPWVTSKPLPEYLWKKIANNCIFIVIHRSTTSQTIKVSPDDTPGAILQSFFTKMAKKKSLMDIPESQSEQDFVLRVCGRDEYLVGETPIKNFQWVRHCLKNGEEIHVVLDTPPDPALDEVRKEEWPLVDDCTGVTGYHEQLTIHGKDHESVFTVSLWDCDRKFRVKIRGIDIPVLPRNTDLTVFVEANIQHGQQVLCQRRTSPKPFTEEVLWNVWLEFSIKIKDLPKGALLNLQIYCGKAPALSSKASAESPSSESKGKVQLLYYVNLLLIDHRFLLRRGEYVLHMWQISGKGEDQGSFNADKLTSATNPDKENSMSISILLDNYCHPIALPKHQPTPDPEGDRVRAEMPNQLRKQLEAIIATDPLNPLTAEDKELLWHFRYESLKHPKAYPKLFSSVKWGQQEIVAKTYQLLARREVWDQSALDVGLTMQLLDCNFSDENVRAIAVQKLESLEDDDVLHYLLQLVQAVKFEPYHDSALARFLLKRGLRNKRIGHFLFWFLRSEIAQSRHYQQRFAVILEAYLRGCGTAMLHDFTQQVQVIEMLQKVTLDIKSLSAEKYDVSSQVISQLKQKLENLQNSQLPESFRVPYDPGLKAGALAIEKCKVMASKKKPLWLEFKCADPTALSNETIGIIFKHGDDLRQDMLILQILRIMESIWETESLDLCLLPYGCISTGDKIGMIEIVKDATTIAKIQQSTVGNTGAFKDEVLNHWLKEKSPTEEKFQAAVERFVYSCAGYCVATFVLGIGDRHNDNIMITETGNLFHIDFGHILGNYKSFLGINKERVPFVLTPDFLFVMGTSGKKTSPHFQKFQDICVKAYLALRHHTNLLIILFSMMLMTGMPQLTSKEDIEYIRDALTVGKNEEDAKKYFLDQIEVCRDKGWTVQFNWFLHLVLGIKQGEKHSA
Assay: PI 3-Kinase (human) HTRF assay, p110γ
Format: biochemical
Conditions: in vitro; read-out: PI3K γ IC50
pIC50: −log10 of the molar value.
Measured pIC50 accompanies every entry in the list below.

These solved cases illustrate the format of a correct answer.
COMPOUND	ENDPOINT	RESULT
CCN(CC)CCNC(=O)c1cnc2ccc(-c3ccc4oc(N)nc4c3)cn12 [compound 295]	pIC50	> 6.00
Nc1nc2cc(-c3ccc4ncc(C(=O)N5CCN(C6CC6)CC5)n4c3)ccc2o1 [compound 263]	pIC50	> 5.00
CN1CCN(C(=O)c2cnn3ccc(-c4ccc5oc(N)nc5c4)cc23)CC1 [compound 380]	pIC50	> 5.00
Nc1nc2cc(-c3ccc4nnc(-c5ccncc5)n4c3)ccc2o1 [compound 229]	pIC50	> 5.00
CS(=O)(=O)CCN1CCC(NC(=O)c2cnc3ccc(-c4ccc5oc(N)nc5c4)cn23)CC1 [compound 199]	pIC50	> 7.00

INPUT: Supply pIC50 measured with p110γ (Homo sapiens (Human), UniProt P48736) for Nc1nc2cc(-c3ccc4ncc(N5CC(N6CCOCC6)C5)nc4c3)c(F)cc2o1 [compound 373] .
OUTPUT: > 5.00

INPUT: Please tell me the measured pIC50 for Nc1nc2cc(-c3ccc4ncn(C5CC5)c(=O)c4c3)ccc2o1 [compound 254] ; system: p110γ (Homo sapiens (Human), UniProt P48736).
OUTPUT: > 6.00

INPUT: # return pIC50 for Cc1ccn(C2CCN(C(=O)c3cnc4ccc(-c5ccc6oc(N)nc6c5)cn34)CC2)n1 [compound 297] , test system: p110γ (Homo sapiens (Human), UniProt P48736)
OUTPUT: > 5.00

INPUT: Fill in pIC50 for CC(=O)Nc1nc2cc(-c3ccc4oc(N)nc4c3)ccc2s1 [compound 250] tested with p110γ (Homo sapiens (Human), UniProt P48736).
OUTPUT: > 7.00

INPUT: Determine reported pIC50 for CC1(C)CN(C2CN(c3cnc4ccc(-c5ccc6oc(N)nc6c5)cc4n3)C2)CCN1 [compound 388] ; test system: p110γ (Homo sapiens (Human), UniProt P48736).
OUTPUT: > 6.00

INPUT: Give pIC50 for this entry on p110γ (Homo sapiens (Human), UniProt P48736): Nc1nc2cc(-c3ccc4ncc(N5CC(N6CCN(C7CC7)CC6)C5)nc4c3)ccc2o1 [compound 313]
OUTPUT: > 5.00
